Molecular target: Methanococcus maripaludis chaperonin (MmCpn) (UniProt Q6LX38)
Test: High-Throughput Screening for Modulators of Cytosolic Chaperonin Activity: MmCpn Primary Screen (AID 488978);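 also: 50 nM MmCpn enzyme hydrolysing 30 µM ATP at 37 °C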
Details: Purified MmCpn ATPase activity, ADP HTRF detection, 10 min; series mostly up to 76.9 µM
The source made the active and inactive calls. Calls follow the shape of the dose curve; as a rule, active = well fitted curve in the direction sought with a large enough effect; inconclusive = small, poorly fitted or top-dose-only effect, or another doubt; inactive = no such curve, though single readings can be large or run the other way.
readout_name: outcome

Record excerpt, results attached:
COc1ccc(C2CNC(=O)C2)cc1OC1CCCC1 (configuration not stated) : inactive
CCOC(=O)C(C)(C)Oc1ccc(Cl)cc1 : inactive
COc1cc2nc(N3CCN(C(=O)c4ccco4)CC3)nc(N)c2cc1OC : inactive
NC12CC3CC(CC(C3)C1)C2 : inactive
Cc1ccc(C(=O)Nc2ccc(S(=O)(=O)O)c3cc(S(=O)(=O)O)cc(S(=O)(=O)O)c23)cc1NC(=O)c1cccc(NC(=O)Nc2cccc(C(=O)Nc3cc(C(=O)Nc4ccc(S(=O)(=O)O)c5cc(S(=O)(=O)O)cc(S(=O)(=O)O)c45)ccc3C)c2)c1 : inactive

Noted for CC(CCc1ccc(O)cc1)NCCc1ccc(O)c(O)c1 (configuration not stated) : its outcome reads inactive

The compound identified as CNCCCC12CCC(c3ccccc31)c1ccccc12 registered its outcome at inactive

# compound COc1ccccc1OCC(O)CN1CCN(CC(=O)Nc2c(C)cccc2C)CC1 (configuration not stated) ; its outcome = inactive

Value of measured outcome for the entry CN1C(C(=O)Nc2ccccn2)=C(O)c2ccccc2S1(=O)=O : inactive

The compound listed as O=C(c1ccc(OCCN2CCCCC2)cc1)c1c(-c2ccc(O)cc2)sc2cc(O)ccc12 shows outcome equal to inactive

Summary for this compound, Nc1nc2c(ncn2COC(CO)CO)c(=O)[nH]1 : outcome is inactive

The compound listed as O=C(CCCN1CCC(O)(c2ccc(Cl)cc2)CC1)c1ccc(F)cc1 shows outcome equal to inactive

---

Assay: Quantitative High-Throughput drug screen in 47 multiple myeloma cell lines against the NCATS MIPE library collection: KMS27_JCRB cell viability assay (AID 1918970); also: nearly all actives have a fitted effect of over 30% in size
Settings: KMS27 myeloma cells, CellTiter-Glo ATP viability, 48 h; series mostly up to 45.8 µM
Results filed as inconclusive are left out. The source made the active and inactive calls. Calls follow the shape of the dose curve; as a rule, active = well fitted cell-killing curve with a large enough effect; inconclusive = small, poorly fitted or top-dose-only effect, or effect the other way; inactive = no such curve, though single readings can be large or run the other way.
Classes to choose from: YES for active, NO for inactive

Consider the following illustrative entries.
CCC1(C)CC(=O)NC1=O (stereo not drawn) : NO
CN1CCN(C2=Nc3cc(Cl)ccc3Nc3ccccc32)CC1 : NO
CN(C)CCOC(c1ccccc1)c1ccccc1 : NO

In this assay, the call recorded for COc1ccc(C2CNC(=O)C2)cc1OC1CCCC1 (stereo not drawn) was what?
NO

Tell me the recorded outcome of this test for CC(C)C(=O)Nc1ccc([N+](=O)[O-])c(C(F)(F)F)c1 .
YES

Any idea what this test logged for Cc1ccc(C(=O)Nc2ccc(S(=O)(=O)O)c3cc(S(=O)(=O)O)cc(S(=O)(=O)O)c23)cc1NC(=O)c1cccc(NC(=O)Nc2cccc(C(=O)Nc3cc(C(=O)Nc4ccc(S(=O)(=O)O)c5cc(S(=O)(=O)O)cc(S(=O)(=O)O)c45)ccc3C)c2)c1 ?
NO

Hi, sorry to bother you, what did the test record for O=C(C1CCCCC1)N1CC(=O)N2CCc3ccccc3C2C1 (stereo not drawn) ?
NO

Write down the call the test reported for this compound. Item: CN(C)CCCN1c2ccccc2CCc2ccc(Cl)cc21
YES

// return assay outcome for CC[C@@]1(O)C(=O)OCc2c1cc1n(c2=O)Cc2cc3c(CN(C)C)c(O)ccc3nc2-1
YES

Identify the outcome logged in this assay for the compound shown: CN(Cc1cnc2nc(N)nc(N)c2n1)c1ccc(C(=O)N[C@@H](CCC(=O)O)C(=O)O)cc1
YES

---

System: NIH3T3
Assay: qHTS assay to identify novel small-molecules to repurpose for Merkel cell carcinoma treatment (AID 1296009); also: nearly all actives have a fitted effect of over 60% in size
Settings: MCC and control cell lines, CellTiter-Glo viability, 72 h; at 44.8 µM (top of the series) unless noted; series mostly up to 44.8 µM
Records with an inconclusive call do not appear. The source made the active and inactive calls. Calls come from the whole dose curve; as a rule, active = well fitted inhibition curve with a large enough effect; inconclusive = small, poorly fitted or top-dose-only effect; inactive = flat fitted curve, though single readings scatter.
readout_name: outcome

Some solved cases for reference:
O=C(CCCN1CCC(O)(c2ccc(Cl)cc2)CC1)c1ccc(F)cc1 : inactive
Nc1nnc(-c2cccc(Cl)c2Cl)c(N)n1 : inactive
COc1cc2nc(N3CCN(C(=O)C4COc5ccccc5O4)CC3)nc(N)c2cc1OC (centres undefined) : inactive
CC(C(=O)O)c1cccc(C(=O)c2ccccc2)c1 (centres undefined) : inactive
CN1CCC(=C2c3ccccc3CC(=O)c3sccc32)CC1 : inactive
COc1cc2nc(N(C)CCCNC(=O)C3CCCO3)nc(N)c2cc1OC (centres undefined) : inactive

Field outcome (NIH3T3), entry Cc1ccccc1N1C(=O)c2cc(S(N)(=O)=O)c(Cl)cc2NC1C (centres undefined) : inactive

Form field outcome for item CN1CCC(=C2c3ccccc3C=Cc3ccccc32)CC1 on NIH3T3: inactive

---

Assay: Quantitative High-Throughput drug screen in 47 multiple myeloma cell lines against the NCATS MIPE library collection: KMS12BM_JCRB cell viability assay (AID 1918971); also: nearly all actives have a fitted effect of over 35% in size
Settings: KMS12BM myeloma viability, CellTiter-Glo ATP, 48 h; series mostly up to 45.8 µM
Results filed as inconclusive are left out. The source made the active and inactive calls. Calls follow the shape of the dose curve; as a rule, active = well fitted cell-killing curve with a large enough effect; inconclusive = small, poorly fitted or top-dose-only effect, or effect the other way; inactive = no such curve, though single readings can be large or run the other way.
Assign a class; possible classes are active, inactive

The examples below pair each entry with its known result.
Cn1c(=O)c2c(ncn2C)n(C)c1=O : inactive
COC(=O)Nc1nc2ccc(C(=O)c3cccs3)cc2[nH]1 : active
Cc1cn([C@H]2C[C@H](N=[N+]=[N-])[C@@H](CO)O2)c(=O)[nH]c1=O : inactive
NC(=O)OCC(COC(N)=O)c1ccccc1 : inactive
CN(Cc1cnc2nc(N)nc(N)c2n1)c1ccc(C(=O)N[C@@H](CCC(=O)O)C(=O)O)cc1 : active

# fetch the recorded call for CCCCc1oc2ccccc2c1C(=O)c1cc(I)c(OCCN(CC)CC)c(I)c1 here
active

---

Biological target: Pyruvate kinase (Leishmania mexicana) (UniProt Q27686)
Test: qHTS Validation Assay for Inhibitors of Leishmania Mexicana Pyruvate Kinase (AID 945)
Conditions: purified L. mexicana pyruvate kinase, enzyme activity, E451W mutant enzyme; series mostly up to 57.5 µM
Calls of active or inactive are those of the source. Calls follow the shape of the dose curve; as a rule, active = well fitted inhibition curve with a large enough effect; inconclusive = small, poorly fitted or top-dose-only effect; inactive = no such curve, though single readings can be large or run the other way.
Valid outcomes are listed here; reply with one: YES = active, NO = inactive

The following compounds have reported results that may help.
CN(C)c1nc(N(C)C)nc(N(C)C)n1 : NO
Cn1cnc2c1c(=O)[nH]c(=O)n2C : NO
Cc1ccc(C(=O)Nc2ccc(S(=O)(=O)O)c3cc(S(=O)(=O)O)cc(S(=O)(=O)O)c23)cc1NC(=O)c1cccc(NC(=O)Nc2cccc(C(=O)Nc3cc(C(=O)Nc4ccc(S(=O)(=O)O)c5cc(S(=O)(=O)O)cc(S(=O)(=O)O)c45)ccc3C)c2)c1 : NO
CC(C)Cc1ccc(C(C)C(=O)O)cc1 (stereo not given) : NO
COc1nc(C)nc(Cl)c1NC1=NCCN1 : NO

We next turn to a different compound, shown below.
Tell me the assay call for Nc1nc2c(ncn2COC(CO)CO)c(=O)[nH]1 please.
NO

---

Experiment: High Content Imaging Cell-Based qHTS for Inhibitors of the mTORC1 Signaling Pathway in MEF Cells (AID 2667)
Conditions: series mostly up to 38.3 µM
Records with an inconclusive call do not appear. Active and inactive are the calls of the source. Calls follow the shape of the dose curve; as a rule, active = well fitted inhibition curve with a large enough effect; inconclusive = small, poorly fitted or top-dose-only effect, or effect the other way; inactive = no such curve, though single readings can be large or run the other way.
Classes to choose from: active, inactive

Returns: the outcome recorded for CC#C[C@]1(O)CC[C@H]2[C@@H]3CCC4=CC(=O)CCC4=C3[C@@H](c3ccc(N(C)C)cc3)C[C@@]21C in this assay.
active

Assay outcome for CN1CCC(=C2c3ccccc3CC(=O)c3sccc32)CC1 : what was it?
inactive

What is the recorded call for this compound in the test? CS(=O)(=O)Nc1ccc([N+](=O)[O-])cc1Oc1ccccc1
inactive

What is the recorded call for this compound in the test? COc1cc2c(c(OC)c1OC)-c1ccc(OC)c(=O)cc1[C@@H](NC(C)=O)CC2
inactive

Record lookup: outcome of this test for CN(C)c1nc(N(C)C)nc(N(C)C)n1 ?
inactive

Each compound tested received a call. Report the one for NC(=O)NO .
inactive

GET /call?item= CN1C(C(=O)Nc2ccccn2)=C(O)c2ccccc2S1(=O)=O returns the recorded outcome of this test.
inactive

Could you please tell me the result logged for NC12CC3CC(CC(C3)C1)C2 in this assay?
inactive

Hello, I am checking results. What call was entered for COc1cc2nc(N(C)CCCNC(=O)C3CCCO3)nc(N)c2cc1OC (stereo unspecified) ?
inactive

Fill in: this test's call for O=C1c2c(O)ccc(O)c2C(=O)c2c(NCCNCCO)ccc(NCCNCCO)c21 is ___
inactive

// return assay outcome for CCOC(=O)Nc1ccc(NCc2ccc(F)cc2)nc1N
inactive

---

Experiment: Quantitative High-Throughput drug screen in 47 multiple myeloma cell lines against the NCATS MIPE library collection: KMS28PE_JCRB cell viability assay (AID 1918983); also: nearly all actives have a fitted effect of over 35% in size
Settings: KMS28PE multiple myeloma viability, CellTiter-Glo ATP, 48 h; series mostly up to 45.8 µM
Results filed as inconclusive are left out. The source made the active and inactive calls. The call rests on the fitted dose curve; in most records, active means well fitted cell-killing curve with a large enough effect; inconclusive means small, poorly fitted or top-dose-only effect, or effect the other way; inactive means no such curve, though single readings can be large or run the other way.
The reply should name one outcome from active, inactive

Some solved cases for reference:
Clc1ccc2c(c1)C(N1CCNCC1)=Nc1ccccc1O2 : active
CNCCCC12CCC(c3ccccc31)c1ccccc12 : active
CC[N+](CC)(CC)CCOc1cccc(OCC[N+](CC)(CC)CC)c1OCC[N+](CC)(CC)CC : inactive
Cn1c(=O)c2[nH]cnc2n(C)c1=O : inactive

// outcome(item) with item = CCOC(=O)Nc1ccc(NCc2ccc(F)cc2)nc1N
inactive

For COc1ccc2[nH]cc(CCNC(C)=O)c2c1 , what call appears in the results of this test?
inactive

Call for entry NS(=O)(=O)c1cc2c(cc1Cl)NCNS2(=O)=O :
inactive

Please let me know the test result on file for Clc1ccc(C(c2ccccc2Cl)C(Cl)Cl)cc1 (configuration not stated) .
active

The reported numbers originate from PubChem BioAssay (NCATS).
